I'd appreciate it if you could supply 8OG:A repair function score values for the items below.
B1: library; numbered along this chain (parent)
chain: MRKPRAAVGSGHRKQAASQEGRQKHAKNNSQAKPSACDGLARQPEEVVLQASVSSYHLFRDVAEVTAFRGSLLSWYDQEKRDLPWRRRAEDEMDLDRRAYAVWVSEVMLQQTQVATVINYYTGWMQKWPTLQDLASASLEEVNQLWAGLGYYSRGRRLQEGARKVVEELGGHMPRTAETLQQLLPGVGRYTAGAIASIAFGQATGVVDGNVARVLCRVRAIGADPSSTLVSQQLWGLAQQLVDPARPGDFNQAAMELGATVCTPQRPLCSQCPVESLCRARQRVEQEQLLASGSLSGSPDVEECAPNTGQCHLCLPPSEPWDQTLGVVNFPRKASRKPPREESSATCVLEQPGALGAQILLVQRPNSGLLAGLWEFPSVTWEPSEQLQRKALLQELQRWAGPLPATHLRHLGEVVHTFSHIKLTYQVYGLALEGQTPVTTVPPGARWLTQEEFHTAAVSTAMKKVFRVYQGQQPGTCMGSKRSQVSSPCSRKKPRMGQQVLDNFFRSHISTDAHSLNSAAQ

- Variants of: B1
- run_description: 8OG:A repair function score (normalized; synonymous = 0, nonsense = -1) (normalized log-likelihood score); higher = more repair activity (WT-like);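 note: cells sorted at 72 h after reporter transfection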
- measurement_setup: with 8OG:A DNA repair reporter (GFP) in HEK-293 MUTYH KO cells
Answers are plain numbers.

- S367I: -0.335
- T204P: -0.903
- G39K: 0.121

Record 8OG:A repair function score for all entries; do not skip any.
1. W128K
2. Q484T
3. R213D

1: -0.455; 2: 0.0125; 3: -1.01

Lab note: each variant below needs its 8OG:A repair function score filled in.
1. K463H
2. E303L
3. G434A
4. G497E
5. K3T
6. Q351T
7. R482T

1: -0.12; 2: -0.0849; 3: 0.188; 4: 0.00606; 5: 0.144; 6: -0.0645; 7: -0.0344

Kindly give each listed record's 8OG:A repair function score.
1. A461F
2. A147Y

1: -0.265; 2: -0.549
